Below, each entry is listed with its recorded IC50.
# subject-of-test: MMP-14CD (catalytic domain of MMP-14) (Homo sapiens)
# protocol-notes: Thiopeptolide hydrolysis assay, catalytic domain of MMP-14
# Assay type: biochemical
# test-settings: Table 3; MMP-14 catalytic domain; read-out: IC50 (μM) MMP14 (CD)

compound: CN1c2ccc(C#CCc3ccccc3)cc2C(=O)N(Cc2ccc(C(=O)O)cc2)S1(=O)=O
subject-of-test: MMP-14CD (catalytic domain of MMP-14) (Homo sapiens)
quantity-name: IC50
result: > 30 µM
//
compound: O=C1Nc2ccc(C#CCc3ccccc3)cc2S(=O)(=O)N1Cc1ccccc1
subject-of-test: MMP-14CD (catalytic domain of MMP-14) (Homo sapiens)
quantity-name: IC50
result: > 30 µM

Now examine the next entry.
The recorded IC50 for entry CN1c2ccc(C#CCc3ccccc3)cc2C(=O)N(Cc2ccc(C(=O)O)cc2)[S+]1[O-] (stereo not drawn) equals > 30 µM
